# target-under-test: PCSK9 (Homo sapiens)
# Sequence (Q8NBP7 153-692): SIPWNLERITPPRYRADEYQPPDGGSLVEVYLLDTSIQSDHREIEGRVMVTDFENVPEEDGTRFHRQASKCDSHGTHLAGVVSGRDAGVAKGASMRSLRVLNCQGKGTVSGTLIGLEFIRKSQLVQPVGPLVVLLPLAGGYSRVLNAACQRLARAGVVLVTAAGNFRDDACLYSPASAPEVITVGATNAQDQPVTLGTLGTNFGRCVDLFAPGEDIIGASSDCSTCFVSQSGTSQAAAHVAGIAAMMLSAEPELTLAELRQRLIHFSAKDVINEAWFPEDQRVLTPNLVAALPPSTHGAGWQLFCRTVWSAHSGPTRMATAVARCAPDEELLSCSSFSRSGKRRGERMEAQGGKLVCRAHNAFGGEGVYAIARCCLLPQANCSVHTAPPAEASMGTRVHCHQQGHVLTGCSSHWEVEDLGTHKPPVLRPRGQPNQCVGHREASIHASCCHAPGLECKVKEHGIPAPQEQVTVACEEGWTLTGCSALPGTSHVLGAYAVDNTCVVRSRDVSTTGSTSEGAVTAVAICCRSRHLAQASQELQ
# assay-overview: PCSK9 Alexa FRET Standard assay (displacement of AlexaFluor647 tagged cyclic peptide Reagent A)
# Assay type: binding
# study-conditions: 0.5 nM PCSK9, 20 nM AF cyclic peptide Reagent A
pIC50: −log10 of the molar value. Numbered stars: 1 amine (or outer) side, 2 acyl side, 3 side chain; on linkers, the order of the positions; unused ones are H or OH. Bridge positions count the residues as written; N and C are the ends. Square brackets hold non-standard residues; d marks the D form. Peptide text beside a SMILES is read from it. Trp(7-aza) = N[C@@H](Cc1c[nH]c2ncccc12)C(=O)O; mXylylene = c1cc(C[*:1])cc(C[*:2])c1; Tle = CC(C)(C)[C@H](N)C(=O)O; Nva = CCC[C@H](N)C(=O)O; Mpa = O=C(O)CCS
Parameter pIC50: see the listing below.
measurement-type: pIC50

| molecule | meas-value |
| --- | --- |
| CCC[C@@H]1NC(=O)[C@H](Cc2c[nH]c3ncccc23)NC(=O)[C@H]([C@@H](C)O)NC(=O)[C@H](Cc2c[nH]cn2)NC(=O)[C@H](Cc2ccc(O)cc2)NC(=O)[C@H](C(C)(C)C)NC(=O)CCSCc2cccc(c2)CSC[C@@H](C(N)=O)NC(=O)[C@H]([C@@H](C)O)NC(=O)[C@H](CCC)NC(=O)[C@H](Cc2ccc(O)cc2)NC(=O)[C@H](CC(=O)O)NC1=O [Compound 254] ([Mpa][Tle]YHT[Trp(7-aza)][Nva]DY[Nva]TC-NH2; linker 1-12 via mXylylene) | 4.68 to 6.00 |
| CCC[C@@H]1NC(=O)[C@H](Cc2ccc(O)cc2)NC(=O)[C@H](CCC(=O)O)NC(=O)[C@H](CCC)NC(=O)[C@H](Cc2c[nH]c3ncccc23)NC(=O)[C@H]([C@@H](C)O)NC(=O)[C@H](Cc2c[nH]cn2)NC(=O)[C@H](Cc2ccc(O)cc2)NC(=O)[C@H](C(C)(C)C)NC(=O)CCSCc2cccc(c2)CSC[C@@H](C(N)=O)NC(=O)[C@H](Cc2c[nH]cn2)NC1=O [Compound 247] ([Mpa][Tle]YHT[Trp(7-aza)][Nva]EY[Nva]HC-NH2; linker 1-12 via mXylylene) | 4.68 to 6.00 |
